- measured target: T1, AFP158/HLA-A*02:01 complex (human)
- T1 construct: biotinylated on the BSP by BirA for ELISA and panning; also called biotinylated AFP158/HLA-A*02:01 complex; Bio-AFP158
- experimental details: SPR; vs AS170036 VL1VH1;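 further: crude scFv captured on sensor chip, peptide–HLA complex flowed over at several concentrations, KD estimated from association and dissociation kinetic rates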
readout type: Affinity increase

binder	Affinity increase
AS170036 VL1VH1 HS57A (scFv) scFv: QSALTQPRSVSGSPGQSVTISCAGTSSDVGSENYVSWYQQHPGKAPKLMIYQVNKRASGVPDRFSGSKSGNTASLTISGLQAEDEADYYCASYRSSDHNIVFGGGTKLTVLGGGGSGGGGSGGGGSEVQLVESGGGLVQPGGSLRLSCAASGFTFSSYAMSWVRQAPGKGLEWVSTINSGTGAPYYADSVKGRFTISRDNSKNTLYLQMNSLRAEDTAVYYCAKNFFDGSWFLGPPAMDYWGQGTLVTVSSHHHHHH	1.2 fold
AS170036 VL1VH1 HG56S (scFv) scFv: QSALTQPRSVSGSPGQSVTISCAGTSSDVGSENYVSWYQQHPGKAPKLMIYQVNKRASGVPDRFSGSKSGNTASLTISGLQAEDEADYYCASYRSSDHNIVFGGGTKLTVLGGGGSGGGGSGGGGSEVQLVESGGGLVQPGGSLRLSCAASGFTFSSYAMSWVRQAPGKGLEWVSTINSGTSSPYYADSVKGRFTISRDNSKNTLYLQMNSLRAEDTAVYYCAKNFFDGSWFLGPPAMDYWGQGTLVTVSSHHHHHH	1.5 fold

// AS170036 VL1VH1 HP58G (scFv) scFv: QSALTQPRSVSGSPGQSVTISCAGTSSDVGSENYVSWYQQHPGKAPKLMIYQVNKRASGVPDRFSGSKSGNTASLTISGLQAEDEADYYCASYRSSDHNIVFGGGTKLTVLGGGGSGGGGSGGGGSEVQLVESGGGLVQPGGSLRLSCAASGFTFSSYAMSWVRQAPGKGLEWVSTINSGTGSGYYADSVKGRFTISRDNSKNTLYLQMNSLRAEDTAVYYCAKNFFDGSWFLGPPAMDYWGQGTLVTVSSHHHHHH : Affinity increase value = 0.9 fold
